# test_description: PK in mice after intravenous bolus
# Assay type: in vivo
# assay_context: male, Swiss Albino, mouse, plasma, 1 mg/kg intravenous bolus, read-out: Vss
attribute_measured: Vd (L/kg)
// note: answer is a bare numeric in L/kg

- smiles_representation: "N#C[C@@H]1CCCN1C(=O)[C@@H]1CC(F)(F)CN1C(=O)c1ccc(OCc2ccccc2)c(F)c1"
  measurement_unit: "L/kg"
  Vd: 9.06

Request: Would you mind telling me what Vd value was observed for COc1cc(C(=O)N2CC(F)(F)C[C@H]2C(=O)N2CCC[C@H]2C#N)cc(OC)c1OCc1ccccc1 ?
Result: 0.64

Request: Look up Vd: N#C[C@@H]1CCCN1C(=O)[C@@H]1C[C@@H](F)CN1C(=O)c1cc(F)c(OCc2ccccc2)c(F)c1
Result: 1.19
